Assay: in vitro
Details: PAMPA, pH 7.4
Description: Apparent permeability of the compound at pH 7.4 by PAMPA

Compound: CN=S(C)(=O)c1ccc(C(F)(F)F)cc1 (stereo not drawn)
Papp [×10⁻⁶ cm/s]: 11
--
Compound: N#Cc1ccc(N=S2(=O)CCCCC2)cc1
Papp [×10⁻⁶ cm/s]: 7.9
--
Compound: Cn1cc(N=S2(=O)CCCCC2)cn1
Papp [×10⁻⁶ cm/s]: 3.2

* * *

Entries annotated with measured Papp
Assay: in vitro
Conditions: PAMPA, pH 7.4

Molecule: CS(=O)(=O)Nc1ccc(C(F)(F)F)cc1
Papp / ×10⁻⁶ cm/s: 5.1
//
Molecule: CC(=O)Nc1ccc(C(F)(F)F)cc1
Papp / ×10⁻⁶ cm/s: 6
//
Molecule: O=S1(=Nc2ccc(F)cc2)CCCCC1
Papp / ×10⁻⁶ cm/s: 9.5
//
Molecule: O=S1(=Nc2ccc(C(F)(F)F)cc2)CCNCC1
Papp / ×10⁻⁶ cm/s: 8.3
//
Molecule: CC(=O)N(C)c1ccc(C(F)(F)F)cc1
Papp / ×10⁻⁶ cm/s: 9.7
//
Molecule: COc1ccc(N=S2(=O)CCCCC2)cc1
Papp / ×10⁻⁶ cm/s: 9.1
//
Molecule: CNS(C)(=O)=Nc1ccc(C(F)(F)F)cc1 (centres undefined)
Papp / ×10⁻⁶ cm/s: 5
//
Molecule: CS(=O)(=O)NC(=O)c1ccc(C(F)(F)F)cc1
Papp / ×10⁻⁶ cm/s: 0.01
//
Molecule: C[S@](=O)(=Nc1ccc(C(F)(F)F)cc1)c1ccccc1
Papp / ×10⁻⁶ cm/s: 2.5
//
Molecule: CN(C)S(C)(=O)=Nc1ccc(C(F)(F)F)cc1 (centres undefined)
Papp / ×10⁻⁶ cm/s: 7.6
//
Molecule: CC(C)(C)NC(=O)Nc1ccc(C(F)(F)F)cc1
Papp / ×10⁻⁶ cm/s: 5.1
//
Molecule: CS(C)(=N)=NC(=O)c1ccc(C(F)(F)F)cc1
Papp / ×10⁻⁶ cm/s: 9.2
//
Molecule: C[S+]([O-])Cc1ccc(C(F)(F)F)cc1 (centres undefined)
Papp / ×10⁻⁶ cm/s: 6.3
//
Molecule: CC(C)(C)OC(=O)Nc1ccc(C(F)(F)F)cc1
Papp / ×10⁻⁶ cm/s: 0.8
//
Molecule: N=S1(=Nc2ccc(C(F)(F)F)cc2)CCCCC1
Papp / ×10⁻⁶ cm/s: 7.3
//
Molecule: O=S1(=Nc2ccc(C(F)(F)F)cc2)CCC1
Papp / ×10⁻⁶ cm/s: 9.6
//
Molecule: O=S1(=N[C@H]2CC[C@@H](C(F)(F)F)CC2)CCCCC1
Papp / ×10⁻⁶ cm/s: 10
//
Molecule: C[S@@](=O)(=Nc1ccc(C(F)(F)F)cc1)c1ccccc1
Papp / ×10⁻⁶ cm/s: 3.5
//
Molecule: CS(C)(=O)=N[C@H]1CC[C@@H](C(F)(F)F)CC1
Papp / ×10⁻⁶ cm/s: 7.8
//
Molecule: CS(=N)(=O)c1ccc(C(F)(F)F)cc1 (centres undefined)
Papp / ×10⁻⁶ cm/s: 6.9
//
Molecule: CS(=O)(=Nc1ccc(C(F)(F)F)cc1)c1ccncc1 (centres undefined)
Papp / ×10⁻⁶ cm/s: 6.2
//
Molecule: O=S1(=Nc2ccccc2)CCCCC1
Papp / ×10⁻⁶ cm/s: 9.5
//
Molecule: O=S1(=Nc2ccc(C(F)(F)F)cc2)CCOCC1
Papp / ×10⁻⁶ cm/s: 8
//
Molecule: CS(=O)(=Nc1ccc(C(F)(F)F)cc1)C1CCOCC1 (centres undefined)
Papp / ×10⁻⁶ cm/s: 9.6
